Tested on: MCF7 breast
Assay protocol: NCI-60 one-dose screen, 48 h
Stated conditions: 10 µM
About 83,000 compounds went through this panel and 20% of them were active in at least one assay; those are over-represented in the sample as a whole. Calls of active or inactive are those of the source. How the source made its calls: active means growth percent below 10; inactive means the rest.
Use one of these outcomes when replying: yes = active, no = inactive

Incoming: So what was the verdict on Nc1ncn([C@@H]2O[C@H](CO)[C@@H](O)[C@H]2O)c(=O)n1 in this test?
Outgoing: no

Incoming: So what was the verdict on COc1ccc(-c2ccc3cc(C(=O)Nc4ccc(O)c(C(=O)/C=C/c5cc(OC)c(OC)c(OC)c5)c4)ccc3c2)cc1 in this test?
Outgoing: no

Incoming: So what was the verdict on Clc1ccc(Sc2nc(NC3CC3)nc(Sc3ccc(Cl)cc3)n2)cc1 in this test?
Outgoing: no

Incoming: So what was the verdict on Fc1ccc(-c2nnc(-c3c(-c4ccc(F)cc4)nc4ccccn34)o2)cc1 in this test?
Outgoing: no

Incoming: So what was the verdict on COc1ccc(C(=O)/C=C/c2cc(-c3cc(OC)c(OC)c(OC)c3)n[nH]2)cc1 in this test?
Outgoing: no

Incoming: So what was the verdict on CC(=O)[C@H]1CC[C@H]2[C@@H]3CCC4=CC(=O)C=C[C@]4(C)[C@H]3CC[C@]12C in this test?
Outgoing: no

====

Listed molecules paired with reported growth
Tested on: OVCAR-3 ovarian
Assay protocol: NCI-60 one-dose screen, 48 h (100 = growth as untreated, 0 = no growth, -100 = all killed)
Stated conditions: 10 µM
About 83,000 compounds went through this panel and 20% of them were active in at least one assay; those are over-represented in the sample as a whole.
Number only, in %; omit the unit.

These recorded examples may help you get a feel for the data.
| Sample smiles | Reported value |
| --- | --- |
| ClCCOCCn1cnc2c(Cl)nc(Cl)nc21 | 58.8 |
| COc1cc(Cl)cc(-c2nn(-c3cccc(NC(=O)Nc4ccc(Cl)c(C(F)(F)F)c4)c3)cc2-c2ccncc2)c1 | -22.6 |
| COc1ccc(Oc2nc(NC3CCCC3)nc(Sc3ccc(OC)cc3)n2)cc1 | 77.1 |
| COc1ccc(-c2cc(-c3cccc(NS(C)(=O)=O)c3)nc(N)c2C#N)cc1 | -48.4 |
| COc1ccc(-c2nn(-c3cccc(NC(=O)Nc4ccc(Cl)c(C(F)(F)F)c4)c3)cc2-c2ccncc2)cc1Cl | -2.03 |
| O=C(Nc1cccc(-n2cc(-c3ccncc3)c(-c3cc(O)cc(Cl)c3)n2)c1)Nc1ccc(Cl)c(C(F)(F)F)c1 | 1.88 |
| COc1ccc(-c2cc(/C=C3\C(=O)Nc4ccc(OC)cc43)[nH]n2)cc1 | 2.64 |
| COc1ccc(-c2ccc(-c3ccc(C(=N)N)cn3)o2)cc1 | 97.1 |

Turning to the following molecule.
Incoming: Query (molecule): CN(C)CCN1C(=O)c2cccc3cc(N)cc(c23)C1=O ; field requested: growth
Outgoing: 56.2

====

Listed molecules paired with reported growth
Tested on: SF-268 CNS
Assay protocol: NCI-60 one-dose screen, 48 h (100 = growth as untreated, 0 = no growth, -100 = all killed)
Stated conditions: 10 µM
The panel holds about 83,000 compounds, 20% with a hit somewhere; the sample as a whole holds those more often. Active and inactive are the calls of the source. How the source made its calls: active means growth percent below 10; inactive means the rest.

Incoming: Give SF-268 CNS growth for COc1cc(-c2cc(C(=O)N3CCN(C(=O)c4ccccc4NCc4ccco4)CC3)nc3cc(-c4ccccc4)nn23)cc(OC)c1OC
Outgoing: 38.6% (inactive)

Incoming: Give SF-268 CNS growth for CN(C)CCNC(=O)c1cccn2c(=O)c3cc4ccccc4cc3nc12
Outgoing: -14.9% (active)

Incoming: Give SF-268 CNS growth for CN1CCCNc2c(c(=O)c2=O)NCCCN(C)CCCNc2c(c(=O)c2=O)NCCCN(C)CCCNc2c(c(=O)c2=O)NCCCN(C)CCCNc2c(c(=O)c2=O)NCCCN(C)CCCNc2c(c(=O)c2=O)NCCCN(C)CCCNc2c(c(=O)c2=O)NCCCN(C)CCCNc2c(c(=O)c2=O)NCCC1
Outgoing: -16.5% (active)
